- test.description: qHTS assay for identifying genotoxic compounds that show differential cytotoxicity against isogenic chicken DT40 cell lines with known DNA damage response pathways - Rad54/Ku70 mutant cell line (AID 743015); note: nearly all actives have a fitted effect of over 60% in size
- conditions: DT40 Rad54/Ku70 mutant viability, CellTiter-Glo, 40 h; series mostly up to 66.8 µM
Inconclusive results are not listed. Activity calls are given as the source filed them. Calls come from the whole dose curve; as a rule, active = well fitted cell-killing curve with a large enough effect in the repeat runs; inconclusive = weak or mixed curves; inactive = no such curve, though single readings can be large or run the other way.
Labels: active, inactive

molecule	group.label
O=C(O)c1ccc[n+]([O-])c1	inactive
NC(N)=NS(=O)(=O)c1ccc(N)cc1	inactive
CN1[C@@H]2CC[C@H]1CC(NC(=O)n1c(=O)[nH]c3ccccc31)C2 (stereo not given in full)	inactive
C[N+](C)(C)CC[N+]1(C)Cc2c(Cl)c(Cl)c(Cl)c(Cl)c2C1	inactive
O=S(=O)(c1cccc2cnccc12)N1CCCNCC1	inactive
NCC[C@H](O)C(=O)N[C@@H]1C[C@H](N)[C@@H](O[C@H]2O[C@H](CN)[C@@H](O)[C@H](O)[C@H]2O)[C@H](O)[C@H]1O[C@H]1O[C@H](CO)[C@@H](O)[C@H](N)[C@H]1O	inactive
Oc1cc(O)c2c(c1)O[C@H](c1ccc(O)c(O)c1)[C@H](O)C2	inactive
NC(=O)CCCCC1CCSS1 (stereo not given)	inactive
CC(C)(O)C(=O)c1ccc(OCCO)cc1	inactive
C#CC(C)(O)CC(C)C (stereo not given)	inactive
CC(C)(C)CC(C)(C)N	inactive
OCC(O)[C@@H](O)[C@H](O)[C@H](O)CO[C@H]1O[C@H](CO)[C@@H](O)[C@H](O)[C@H]1O (stereo not given in full)	inactive
CCCC(C)C(=O)O (stereo not given)	inactive
CCOC(=O)Cn1c(=O)sc2cccc(Cl)c21	inactive
CC(C)=CC(=O)O	inactive
COc1cccc(Br)c1	inactive
O=C(O)c1ccccc1S	inactive
CCN(CC)C(=O)c1ccc(O)c(OC)c1	inactive
CN(C)CCn1nnnc1SCC1=C(C(=O)O)N2C(=O)[C@@H](NC(=O)Cc3csc(N)n3)[C@H]2SC1	inactive
COc1cc(C(=O)N2CCOCC2)cc(OC)c1OC	inactive
Fc1ccccc1-c1ccccc1	inactive
COC(=O)C1=C(C)NC(C)=C(C(=O)OCC(C)=O)C1c1ccccc1[N+](=O)[O-] (stereo not given)	active
OCC(CO)(CO)COCC(CO)(CO)CO	inactive
NC(CS)C(=O)O (stereo not given)	inactive
NS(=O)(=O)c1cc2c(cc1Cl)NC(CSCc1ccccc1)=NS2(=O)=O	inactive
CCC(C)(C)C1CCC(OC)CC1 (stereo not given)	inactive
CC(C)c1cccc(C(C)C)c1N	inactive
O=[N+]([O-])c1ccc(CCO)cc1	inactive
C#CC(O)C(CC)CCCC (stereo not given)	inactive
COC(=O)CCCC(=O)O	inactive
Cc1ccc(N)cc1[N+](=O)[O-]	inactive
CCCCOCC(C)OCC(C)O (stereo not given)	inactive
CCC(C)OC(=O)N1CCCCC1CCO (stereo not given)	inactive
OCc1ccccn1	inactive
OCCN1C[C@H](O)[C@@H](O)[C@H](O)[C@H]1CO	inactive
C=C(C)[C@@H]1CCC2=CC(=O)C[C@@H](C)[C@]2(C)C1	inactive
COCCOC(=O)CC#N	inactive
O=C(O)CCNC(=O)c1ccc(N=Nc2ccc(O)c(C(=O)O)c2)cc1	inactive
CCCC=O	inactive
C=C[Si](OC)(OC)OC	inactive
C/C=C1\C(=O)C[C@H]2[C@@H]3CCC4=CC(=O)CC[C@]4(C)[C@H]3CC[C@]12C	active
C=C(C)C(=O)NCCCN(C)C	inactive
CCCC(C)CO (stereo not given)	inactive
C=C(C)C(=O)OCCCCCCCCCCCCCCCCCC	inactive
CCOC(=O)Nc1ccc2c(c1)N(C(=O)CCN1CCOCC1)c1ccccc1S2	inactive
CCC(=O)Nc1cccc(N)c1	inactive
C=CCOCC(O)CS(=O)(=O)O (stereo not given)	inactive
COc1cc(C)cc(O)c1	inactive
N#CCc1ccccc1[N+](=O)[O-]	inactive
CCN1CCCC1CNC(=O)c1cc(S(N)(=O)=O)ccc1OC (stereo not given)	inactive
CC(C)(C)N(CCO)CCO	inactive
NC(=O)c1c(Cl)cccc1Cl	inactive
CCCCCCCCCCCCI	active
CCC(=O)c1cccc(Cl)c1	inactive
CCOC(=O)[C@H](CCc1ccccc1)N[C@@H](C)C(=O)N1CCC[C@H]1C(=O)O	inactive

* * *

- test.description: qHTS assay to identify small molecule antagonists of the estrogen related receptor (ERR) signaling pathway from Tox21 library - cell viability counter screen (AID 1224834); note: % is set by controls: 0 for no effect and ±100 for the full control effect; nearly all actives have a fitted effect of over 30% in size
- conditions: ERR reporter cells viability, CellTiter-Fluor, 17.5 h; series mostly up to 92.4 µM
Records with an inconclusive call do not appear. Active and inactive are the calls of the source. The call rests on the fitted dose curve; in most records, active means well fitted cell-killing curve with a large enough effect in the repeat runs; inconclusive means weak or mixed curves; inactive means flat fitted curve, though single readings scatter.
property.measured: viability change, negative = cytotoxic

> print(dat)
                                    compound                         result
 1  CCCCCCCCCCCCCCCCCCOCC(O)CO (configuration not stated)                       inactive
 2                        Fc1ccccc1-c1ccccc1                       inactive
 3                           CC(=O)OC(C)(C)C                       inactive
 4                             CCCCCCCCCCCCI                       inactive
 5  Cc1cc(C)cc(OCC2CNC(=O)O2)c1 (configuration not stated)                       inactive
 6  NC(=O)CCCCC1CCSS1 (configuration not stated)                       inactive
 7                              NCCN1CCNC1=O                       inactive
 8  O=C(O)Cc1cc(I)c(Oc2cc(I)c(O)c(I)c2)c(I)c1                       inactive
 9             CSc1nc(NC2CC2)nc(NC(C)(C)C)n1                       inactive
10          CCN(CC)S(=O)(=O)c1ccc(C(=O)O)cc1                       inactive
11                         Nc1[nH]c(=O)ncc1F                       inactive
12            C=C(C)C(=O)OCCCCCCCCCCCCCCCCCC  -0.607% [at 19 µM] (inactive)
13  C[C@H]1O[C@@H](n2cc(F)c(=O)[nH]c2=O)[C@H](O)[C@@H]1O                       inactive
14  Cc1c(C)n(CCN(C)C)c2ccc(C(=O)OCCN(C)C)cc12                       inactive
15                            COc1cccc(Br)c1                       inactive
16      CCc1cc(S(=O)(=O)O)c2cc(C(C)C)cccc1-2                       inactive
17                          CC(C)(O)c1ccccc1                       inactive
18               O=c1[nH]c2ccccc2c(=O)n1CCCl                       inactive
19  C#CC(C)(O)CC(C)C (configuration not stated)                       inactive
20             CC(=O)N[C@@H](CCC(N)=O)C(=O)O                       inactive
21      Cc1ncc(CSSCc2cnc(C)c(O)c2CO)c(CO)c1O                       inactive
22  NS(=O)(=O)c1cc2c(cc1Cl)NC(CSCc1ccccc1)=NS2(=O)=O                       inactive
23                           CCCCCCCCCCCCCCC                       inactive
24       CO[Si](CCCNCCC[Si](OC)(OC)OC)(OC)OC                       inactive
25                   CC(C)=CCC/C(C)=C/C(=O)O                       inactive
26  CN(C)CCOC(c1ccc(Cl)cc1)c1ccccn1 (configuration not stated)                       inactive
27  C[C@H](O)C(=O)Nc1c(I)c(C(=O)NC(CO)CO)c(I)c(C(=O)NC(CO)CO)c1I                       inactive
28  C=CCSCC1Nc2cc(Cl)c(S(N)(=O)=O)cc2S(=O)(=O)N1 (configuration not stated)                       inactive
29  CCN1CCCC(OC(=O)C(c2ccccc2)c2ccccc2)C1 (configuration not stated)                       inactive
30            CCCCc1ccc2cccc(S(=O)(=O)O)c2c1                       inactive
31               Nc1ccc2cc(S(=O)(=O)O)ccc2c1                       inactive
32  O=c1[nH]c(=O)n([C@H]2O[C@H](CO)[C@@H](O)[C@@H]2O)cc1/C=C\Br                       inactive
33   OCCN1C[C@H](O)[C@@H](O)[C@H](O)[C@H]1CO                       inactive
34                  N#CCc1ccccc1[N+](=O)[O-]                       inactive
35               CC(C)(O)C(=O)c1ccc(OCCO)cc1                       inactive
36                         N[C@@H](CS)C(=O)O                       inactive
37                           OC/C=C/c1ccccc1                       inactive
38                 CCO[Si](CCCN=C=O)(OCC)OCC                       inactive
39                CC1(C)OC(=O)Nc2ccc(Br)cc21                       inactive
40                            CCCc1ccc(N)cc1                       inactive
41         O=C1OC(=O)c2cc([N+](=O)[O-])ccc21                       inactive
42                             CCCCNc1ccccc1                       inactive
43                              CCCCCCCCCCCl                       inactive
44  C=CCOCC(O)CS(=O)(=O)O (configuration not stated)                       inactive
45                         CC(C)(C)CC(C)(C)N                       inactive
46  CN1[C@@H]2CC[C@H]1CC(NC(=O)n1c(=O)[nH]c3ccccc31)C2 (some centres not stated)                       inactive
47  NC(=O)c1ncn([C@@H]2O[C@H](CO)[C@@H](O)[C@H]2O)c1N                       inactive
48                          COc1nc(C)nc(N)n1                       inactive
49  CCn1cc(C(=O)O)c(=O)c2cc(F)c(N3CCN(C)CC3)cc21    3.25% [at 19 µM] (inactive)
50  CC(C)c1ccc2oc3nc(N)c(C(=O)O)cc3c(=O)c2c1                       inactive
51                     COc1cc(CCC(C)=O)ccc1O                       inactive
52         O=C(O)c1ccccc1-c1ccc(C(F)(F)F)cc1                       inactive
53  CC1=CC(C)C(C=O)C(C)C1 (configuration not stated)                       inactive
54  CC(=O)NC(Cc1ccccc1)C(=O)O (configuration not stated)                       inactive
55  NS(=O)(=O)c1cc2c(cc1C(F)(F)F)NC(Cc1ccccc1)NS2(=O)=O (configuration not stated)                       inactive
56               NC(N)=NS(=O)(=O)c1ccc(N)cc1                       inactive
57                            COc1cccc(OC)c1                       inactive
